What viability, T/C was measured for each of the following?
- System: 598228-144-R-J1-PDC complex spheroids, viability
- ASSAY_REMARKS: Anticancer human tumor 598228-144-R-J1-PDC patient-derived serous endometrial adenocarcinoma cell line growth inhibition [CLK]
- REPORTED_CONDITIONS: second compound 0.1 µM; first compound 0.0316 µM; hits give low values
Field: numeric (%). Do not append units.

Enquiry: Endpoint output: viability, T/C of COC1C=CCC(C)C(C)S(=O)(=O)NC(=O)c2ccc3c(c2)N(CC2CCC21)CC1(CCCc2cc(Cl)ccc21)CO3 (stereo not given) + CN1CCN(c2cc(C(=O)Nc3cc4cc(-c5cnn(C)c5)ccc4cn3)ccn2)CC1 . Value?
Return: 122

Enquiry: Entry CC1COCCN1c1cc(C2(S(C)(=N)=O)CC2)nc(-c2ccnc3[nH]ccc23)n1 (stereo not given) + CN1CCN(c2cc(C(=O)Nc3cc4cc(-c5cnn(C)c5)ccc4cn3)ccn2)CC1 please
Return: 127

Enquiry: Continue with C#Cc1c(F)ccc2cc(O)cc(-c3ncc4c(N5CC6CCC(C5)N6)nc(OCC56CCCN5CC(F)C6)nc4c3F)c12 (stereo not given) + CN1CCN(c2cc(C(=O)Nc3cc4cc(-c5cnn(C)c5)ccc4cn3)ccn2)CC1
Return: 133

Enquiry: Next compound: CCN1CCN(Cc2ccc(Nc3ncc(F)c(-c4cc(F)c5nc(C)n(C(C)C)c5c4)n3)nc2)CC1 + CN1CCN(c2cc(C(=O)Nc3cc4cc(-c5cnn(C)c5)ccc4cn3)ccn2)CC1
Return: 115

Enquiry: What about Nc1ccn(C2OC(CO)C(O)C2(F)F)c(=O)n1 (stereo not given) + CNC(=O)c1ccc(Nc2nc(OC3CCCC3)c3c(-c4ccc5nc(C)oc5c4)c[nH]c3n2)c(OC)c1 ?
Return: 57.3

====

- Tested on: 598228-144-R-J1-PDC complex spheroids, viability
- ASSAY_REMARKS: Anticancer human tumor 598228-144-R-J1-PDC cell line growth inhibition [CLK];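 further: spheroids exposed to compounds for seven days before readout; 100% = DMSO vehicle control wells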
- REPORTED_CONDITIONS: second compound 10 µM; first compound 3.16 µM; hits give low values
Field: class. Source value: viability, T/C. Ranges: low = under 3%, medium = from 3% up to 30%, high = 30% and over

Enquiry: # classify by viability, T/C band: C=C(F)C(=O)N1CCN(c2nc(OCC3CCCN3C)nc3c2CCN(c2cccc4cccc(Cl)c24)C3)CC1CC#N (centres undefined) + CN1CCN(c2cc(C(=O)Nc3cc4cc(-c5cnn(C)c5)ccc4cn3)ccn2)CC1
Return: low

Enquiry: // repeat for CCCS(=O)(=O)Nc1ccc(F)c(C(=O)c2c[nH]c3ncc(-c4ccc(Cl)cc4)cc23)c1F + CN1CCN(c2cc(C(=O)Nc3cc4cc(-c5cnn(C)c5)ccc4cn3)ccn2)CC1 and report
Return: medium

Enquiry: What about this compound? O=C(c1cc(Cc2n[nH]c(=O)c3ccccc23)ccc1F)N1CCN(C(=O)C2CC2)CC1 + CNC(=O)c1ccc(Nc2nc(OC3CCCC3)c3c(-c4ccc5nc(C)oc5c4)c[nH]c3n2)c(OC)c1
Return: high

Enquiry: Repeat with C#Cc1c(F)ccc2cc(O)cc(-c3ncc4c(N5CC6CCC(C5)N6)nc(OCC56CCCN5CC(F)C6)nc4c3F)c12 (centres undefined) + CN1CCN(c2cc(C(=O)Nc3cc4cc(-c5cnn(C)c5)ccc4cn3)ccn2)CC1
Return: low

Enquiry: Another compound: CC1(C)CCC(CN2CCN(c3ccc(C(=O)NS(=O)(=O)c4ccc(NCC5CCOCC5)c([N+](=O)[O-])c4)c(Oc4cnc5[nH]ccc5c4)c3)CC2)=C(c2ccc(Cl)cc2)C1 + CNC(=O)c1ccc(Nc2nc(OC3CCCC3)c3c(-c4ccc5nc(C)oc5c4)c[nH]c3n2)c(OC)c1
Return: high

Enquiry: Next compound up: C=C(F)C(=O)N1CCN(c2nc(OCC3CCCN3C)nc3c2CCN(c2cccc4cccc(Cl)c24)C3)CC1CC#N (centres undefined) + CNC(=O)c1ccc(Nc2nc(OC3CCCC3)c3c(-c4ccc5nc(C)oc5c4)c[nH]c3n2)c(OC)c1
Return: high

Enquiry: Cool, now CC1COCCN1c1cc(C2(S(C)(=N)=O)CC2)nc(-c2ccnc3[nH]ccc23)n1 (centres undefined) + CN1CCN(c2cc(C(=O)Nc3cc4cc(-c5cnn(C)c5)ccc4cn3)ccn2)CC1
Return: low

Enquiry: Entry to check: O=c1[nH]cc(F)c(=O)[nH]1 + CN1CCN(c2cc(C(=O)Nc3cc4cc(-c5cnn(C)c5)ccc4cn3)ccn2)CC1
Return: medium

Enquiry: And what about the compound CC1(C)CCC(CN2CCN(c3ccc(C(=O)NS(=O)(=O)c4ccc(NCC5CCOCC5)c([N+](=O)[O-])c4)c(Oc4cnc5[nH]ccc5c4)c3)CC2)=C(c2ccc(Cl)cc2)C1 + CN1CCN(c2cc(C(=O)Nc3cc4cc(-c5cnn(C)c5)ccc4cn3)ccn2)CC1 ?
Return: low

Enquiry: Then what about the compound CC(=O)O[C@H]1C(=O)[C@@]2(C)[C@H]([C@H](OC(=O)c3ccccc3)[C@]3(O)C[C@H](OC(=O)[C@H](O)[C@@H](NC(=O)c4ccccc4)c4ccccc4)C(C)=C1C3(C)C)[C@]1(OC(C)=O)CO[C@@H]1C[C@@H]2O + CNC(=O)c1ccc(Nc2nc(OC3CCCC3)c3c(-c4ccc5nc(C)oc5c4)c[nH]c3n2)c(OC)c1 ?
Return: high

Enquiry: What do you get for C#Cc1c(F)ccc2cc(O)cc(-c3ncc4c(N5CC6CCC(C5)N6)nc(OCC56CCCN5CC(F)C6)nc4c3F)c12 (centres undefined) + CNC(=O)c1ccc(Nc2nc(OC3CCCC3)c3c(-c4ccc5nc(C)oc5c4)c[nH]c3n2)c(OC)c1 ?
Return: high

Enquiry: Similarly, CC(Nc1ccc2c(c1)OCCn1cc(N3C(=O)OCC3C(F)F)nc1-2)C(N)=O (centres undefined) + CNC(=O)c1ccc(Nc2nc(OC3CCCC3)c3c(-c4ccc5nc(C)oc5c4)c[nH]c3n2)c(OC)c1 ?
Return: medium

Enquiry: For Nc1ccccc1NC(=O)c1ccc(CNC(=O)OCc2cccnc2)cc1 + CN1CCN(c2cc(C(=O)Nc3cc4cc(-c5cnn(C)c5)ccc4cn3)ccn2)CC1 then?
Return: low

Enquiry: Continue with Nc1ccccc1NC(=O)c1ccc(CNC(=O)OCc2cccnc2)cc1 + CNC(=O)c1ccc(Nc2nc(OC3CCCC3)c3c(-c4ccc5nc(C)oc5c4)c[nH]c3n2)c(OC)c1
Return: medium

Enquiry: Queued: COC1C=CCC(C)C(C)S(=O)(=O)NC(=O)c2ccc3c(c2)N(CC2CCC21)CC1(CCCc2cc(Cl)ccc21)CO3 (centres undefined) + CN1CCN(c2cc(C(=O)Nc3cc4cc(-c5cnn(C)c5)ccc4cn3)ccn2)CC1
Return: low

Enquiry: CC(CO)NC(=O)c1cc(-c2ccc(Cl)cc2)nn(-c2cnn(C)c2)c1=O (centres undefined) + CNC(=O)c1ccc(Nc2nc(OC3CCCC3)c3c(-c4ccc5nc(C)oc5c4)c[nH]c3n2)c(OC)c1 , same question.
Return: high

Enquiry: Moving on to Nc1ccn(C2OC(CO)C(O)C2(F)F)c(=O)n1 (centres undefined) + CN1CCN(c2cc(C(=O)Nc3cc4cc(-c5cnn(C)c5)ccc4cn3)ccn2)CC1
Return: medium

Enquiry: Can you check COc1cccc2c1C(=O)c1c(O)c3c(c(O)c1C2=O)CC(O)(C(=O)CO)CC3OC1CC(N)C(O)C(C)O1 (centres undefined) + CN1CCN(c2cc(C(=O)Nc3cc4cc(-c5cnn(C)c5)ccc4cn3)ccn2)CC1 next?
Return: low

Enquiry: Check CC(=O)O[C@H]1C(=O)[C@@]2(C)[C@H]([C@H](OC(=O)c3ccccc3)[C@]3(O)C[C@H](OC(=O)[C@H](O)[C@@H](NC(=O)c4ccccc4)c4ccccc4)C(C)=C1C3(C)C)[C@]1(OC(C)=O)CO[C@@H]1C[C@@H]2O + CN1CCN(c2cc(C(=O)Nc3cc4cc(-c5cnn(C)c5)ccc4cn3)ccn2)CC1 too.
Return: low

====

- Test system: 598228-144-R-J1-PDC complex spheroids, viability
- ASSAY_REMARKS: Anticancer human tumor 598228-144-R-J1-PDC cell line growth inhibition [CLK];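 further: spheroids exposed to compounds for seven days before readout; 100% = DMSO vehicle control wells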
- REPORTED_CONDITIONS: second compound 0.0316 µM; first compound 1 µM; hits give low values
Please go through the items and note down their viability, T/C.
Answer in %, number only, no unit symbol.

Enquiry: Give 598228-144-R-J1-PDC complex spheroids, viability viability, T/C for O=C(c1cc(Cc2n[nH]c(=O)c3ccccc23)ccc1F)N1CCN(C(=O)C2CC2)CC1 + CN1CCN(c2cc(C(=O)Nc3cc4cc(-c5cnn(C)c5)ccc4cn3)ccn2)CC1
Return: 118

Enquiry: How about this molecule: CC1(C)CCC(CN2CCN(c3ccc(C(=O)NS(=O)(=O)c4ccc(NCC5CCOCC5)c([N+](=O)[O-])c4)c(Oc4cnc5[nH]ccc5c4)c3)CC2)=C(c2ccc(Cl)cc2)C1 + CNC(=O)c1ccc(Nc2nc(OC3CCCC3)c3c(-c4ccc5nc(C)oc5c4)c[nH]c3n2)c(OC)c1
Return: 96.5

Enquiry: # iterate: C=CC(=O)N1CCN(c2nc(=O)n(-c3c(C)ccnc3C(C)C)c3nc(-c4c(O)cccc4F)c(F)cc23)C(C)C1 (stereo not given) + CN1CCN(c2cc(C(=O)Nc3cc4cc(-c5cnn(C)c5)ccc4cn3)ccn2)CC1
Return: 138

Enquiry: Cool, now C=CC(=O)N1CCN(c2nc(=O)n(-c3c(C)ccnc3C(C)C)c3nc(-c4c(O)cccc4F)c(F)cc23)C(C)C1 (stereo not given) + CNC(=O)c1ccc(Nc2nc(OC3CCCC3)c3c(-c4ccc5nc(C)oc5c4)c[nH]c3n2)c(OC)c1
Return: 123

Enquiry: Moving on to the next molecule: Nc1ccn(C2OC(CO)C(O)C2(F)F)c(=O)n1 (stereo not given) + CN1CCN(c2cc(C(=O)Nc3cc4cc(-c5cnn(C)c5)ccc4cn3)ccn2)CC1
Return: 21.2

The measured values listed here are drawn from PubChem BioAssay AID2060614.
